Entry source: the supplement of paper PMC9170038

Can you tell me apparent KD of MS2 coat protein for the items I'm about to list?
# System: MS2 coat protein
# assay-remarks: apparent KD of MS2 coat protein; designed switch direction (-1 OFF switch, 1 ON switch): -1; higher = weaker reporter binding
# run-conditions: input ligand: none
Form entry: value (nM) — number only.

Could you share which apparent KD of MS2 coat protein value was measured for GUGAAGUAAGGAUAUAGUGGAAAAGAUAAGGUAUGAGAGUUCUAGAAGGUACAUGAGGAUCACCCAUGUUAGGG [JR_Exclu4_Sub085] (Eterna round: R96, puzzle: Exclusion 4) ?
360

Then what about the sequence GGAAGGUGAGGAUAUACAAAGACGGAAACGUCAGGUGAGAGACAUGAGGAUCACCCAUGUAGAAGGCACGGAGA [AK-MS2ROC-r4-exclusion2-16.1] (Eterna round: R97, puzzle: Exclusion 2) ?
74.4

Then what about the sequence AAAUUGGUAGAGGAUAUCGCACAGGAAACACUGCGAGAAGGCUGCACAUGAGGAUCACCCAUGUUCAGUUGCGA [EX6 #38] (Eterna round: R97, puzzle: Exclusion 6) ?
14.8

Then what about the sequence AUAUUAAUAGUAAGGAUAUGCGUGUAUGUAGUUAUGCAGAAGGUACAUGAGGAUCACCCAUGUAUUAAUGUGUG [LRO-BmodExc4-06-Oppy's Opus] (Eterna round: R97, puzzle: Brourd's mod of Exclusion 4) ?
17.3

Then what about the sequence GCCUUAUCCGUCAGGAUAUACAUUUUUUUUUUUUUGUAGAAGGGACAUGAGGAUCACCCAUGUACAUUACAUUG [alecazam17] (Eterna round: R97, puzzle: Brourd's mod of Exclusion 4) ?
22.9

Then what about the sequence AACAGUCUAGAGGAUAUGCUGGAUUAAUAUCUGGCAGAAGGCUGGACAUGAGGAUCACCCAUGUAAAUACUACC [Omei Ex6 A1] (Eterna round: R97, puzzle: Exclusion 6) ?
44.3

Then what about the sequence CCCAGUUACGGAGGAUAUUGUACAUGAGGAUCACCCAUGUAAUAAAUGAGGAUUUCGGGUGUCUACAAGAAGGCCGGGAUAGGC [Ostracism 18 - Jieux - Exclusion NG 2] (Eterna round: R96, puzzle: Exclusion NG 2) ?
66

Then what about the sequence UAGCAUUGCCAAAGGUAGUGCAUUACAUGAGGAUCACCCAUGUAGGAUAUGGUAGGCUUUGCUUACCAGAAGGACAUGAUAAUU [Mat - Exclusion NG 3 - Mod of JL - D15] (Eterna round: R96, puzzle: Exclusion NG 3) ?
43.1

Then what about the sequence UAUUAGCAAGCGAAAUCCCACAUGAGGAUCACCCAUGUAAAUAAAAGCUCCAGAAUUACUGGAGCAGCUCGUCUUAU [Winner reversed engineered 18] (Eterna round: R97, puzzle: Sensor, turn-off variant 1) ?
24.5

Then what about the sequence ACUAUACGAGGAUAUACUGACGGGCCUCAGGCAUCCAUCAGACAUGAGGAUCACCCAUGUAGAAGGCGUAUACU [JR_Exc002_Sub408] (Eterna round: R96, puzzle: Exclusion 2) ?
51.4

Then what about the sequence GAGUAGAGAGGAUAUGCAAUGAUCAUCGUACGAUGAGGCUGACAUGAGGAUCACCCAUGUAGAAGGCUCUGGUC [EX2 #20] (Eterna round: R97, puzzle: Exclusion 2) ?
23.3

Then what about the sequence GACGUGUAAGGAUAUGAUGUUGCAAACAAGACCCUUAAUCAUUAGAAGGUACAUGAGGAUCACCCAUGUAGGGU [Eternabot (L2) Solution 100] (Eterna round: R97, puzzle: Exclusion 4) ?
140

Then what about the sequence GGGCUGGGAGGAUAUUCGUUUGGAGACAUGAGGAUCACCCAUGUGAUGCGAGGGAAGUCCGGAGAAGGCUCGGUUC [-24.8, -21.2 kcal, 22% A] (Eterna round: R97, puzzle: Exclusion 5) ?
15.9

Then what about the sequence ACAUGUAAUGUAGGAUAUUUUACACAUGAGGAUCACCCAUGUGACCAGAGGCAUUGCUAUGAGUAAAAGAAGGGUAUGUACAUG [Ex NG2 #58] (Eterna round: R96, puzzle: Exclusion NG 2) ?
42.3

Then what about the sequence AGGUGUAGAGGAUAUUUAUACUCCCACAUGAGGAUCACCCAUGUCCUGGUCACCAAGGACGGAGAAGGCUACACCA [Omei Ex5 D23] (Eterna round: R97, puzzle: Exclusion 5) ?
41.8

Then what about the sequence UCCGAACAUGAGGAUCACCCAUGUCAGGAUAUUCGGUUACGUGACAAAUAGUACUAACGAAGAAGGGACAUGCU [Eternabot (L2) Solution 26] (Eterna round: R97, puzzle: Exclusion 1) ?
27.7

Then what about the sequence AAAAAAUAAAAAACAAGCUACAUGAGGAUCACCCAUGUUACAAAAAUAAAAUAAAAAUAAAAUAAAAGUAAAAUGGG [Sensor V2: 75 Random] (Eterna round: R96, puzzle: Sensor v2, turn-off variant) ?
98.8

Then what about the sequence UAUAUAUAGUAAGGAUAUGUAUUAAGUUUAUAAACAGAAGGUACUGACAUGAGGAUCACCCAUGUUUUAGUGUGGGCAUGUAGA [JMF's solution 76] (Eterna round: R96, puzzle: Exclusion NG 1) ?
78.6
